experiment: Tested for the 1-Octanol distribution coefficient determined by HPLC method (pH 7.4); assay type: physicochemical; conditions: 1-octanol/aqueous phase
MEASUREMENT KIND: logD
// no unit, no text: just the number

Task: Return logD (reported value) for this compound: c1ccc2c(c1)OCC(Cc1nc3ccccc3[nH]1)O2 (stereo unspecified)
Output: 3.29

Task: Return logD (reported value) for this compound: Cl.c1ccc2c(c1)OCC(CC1=NCCN1)O2 (stereo unspecified)
Output: 0.28

---

Property: pA2; scope: individual molecules
Target: Adrenergic receptor alpha-1 (Rattus norvegicus, UniProt P15823+P23944+P43140)
Sequence (P15823 whole entry): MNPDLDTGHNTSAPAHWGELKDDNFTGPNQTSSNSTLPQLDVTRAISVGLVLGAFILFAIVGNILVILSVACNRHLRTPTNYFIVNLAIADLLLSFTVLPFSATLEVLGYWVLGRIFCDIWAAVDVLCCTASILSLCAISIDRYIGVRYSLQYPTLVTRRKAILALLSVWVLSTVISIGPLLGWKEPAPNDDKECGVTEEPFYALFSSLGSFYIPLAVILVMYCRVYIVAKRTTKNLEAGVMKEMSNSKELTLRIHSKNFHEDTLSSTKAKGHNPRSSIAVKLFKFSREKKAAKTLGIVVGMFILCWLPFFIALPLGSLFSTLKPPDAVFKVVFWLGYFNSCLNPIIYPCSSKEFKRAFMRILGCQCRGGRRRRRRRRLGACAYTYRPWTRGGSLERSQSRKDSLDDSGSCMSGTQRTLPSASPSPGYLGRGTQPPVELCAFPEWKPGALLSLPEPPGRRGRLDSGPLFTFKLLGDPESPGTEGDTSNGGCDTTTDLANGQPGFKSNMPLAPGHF
Sequence (P23944 whole entry): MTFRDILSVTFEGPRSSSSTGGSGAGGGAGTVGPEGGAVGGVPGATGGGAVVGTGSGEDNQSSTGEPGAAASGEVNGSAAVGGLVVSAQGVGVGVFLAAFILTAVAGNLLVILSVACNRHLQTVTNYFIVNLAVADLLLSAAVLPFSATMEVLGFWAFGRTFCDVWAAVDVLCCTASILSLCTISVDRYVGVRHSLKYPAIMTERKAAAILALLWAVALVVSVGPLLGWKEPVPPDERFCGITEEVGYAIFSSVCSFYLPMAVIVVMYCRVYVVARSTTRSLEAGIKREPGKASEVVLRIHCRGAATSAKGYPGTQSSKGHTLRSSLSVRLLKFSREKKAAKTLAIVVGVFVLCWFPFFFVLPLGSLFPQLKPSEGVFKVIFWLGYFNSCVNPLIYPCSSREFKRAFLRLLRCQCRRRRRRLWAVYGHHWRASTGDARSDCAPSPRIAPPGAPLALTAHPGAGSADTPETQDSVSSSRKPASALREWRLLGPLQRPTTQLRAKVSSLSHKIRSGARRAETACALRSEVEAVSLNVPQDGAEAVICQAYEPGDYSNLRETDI
Sequence (P43140 whole entry): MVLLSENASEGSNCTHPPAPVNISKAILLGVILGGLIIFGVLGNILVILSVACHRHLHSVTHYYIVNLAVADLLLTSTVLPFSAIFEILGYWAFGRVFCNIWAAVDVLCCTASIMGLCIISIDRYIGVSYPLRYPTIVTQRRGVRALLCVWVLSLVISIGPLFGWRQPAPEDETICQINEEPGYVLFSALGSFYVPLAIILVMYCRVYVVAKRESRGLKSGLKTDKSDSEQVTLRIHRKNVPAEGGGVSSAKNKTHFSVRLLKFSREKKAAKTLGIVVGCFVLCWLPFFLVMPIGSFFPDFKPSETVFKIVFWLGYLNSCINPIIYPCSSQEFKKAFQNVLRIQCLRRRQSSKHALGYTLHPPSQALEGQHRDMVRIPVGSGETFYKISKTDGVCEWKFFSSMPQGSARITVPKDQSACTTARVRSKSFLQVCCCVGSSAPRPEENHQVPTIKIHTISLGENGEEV
Test: Antagonistic activity against Alpha-1 adrenergic receptor in the epididymal portion of the rat vas deferens
Assay type: functional, tissue-based
// no unit, no text: just the number

Field: example entries. Status: answers known.
> print(dat)
                                   molecule  measurement.kind  assay.result
1  CC(C)n1ccnc1CC1COc2ccccc2O1 (configuration not stated)               pA2           4.3
2  Cl.c1ccc2c(c1)OCC(CC1=NCCN1)O2 (configuration not stated)               pA2             5
3  Cl.c1ccc2c(c1)OCC(CCc1ncc[nH]1)O2 (configuration not stated)               pA2           4.2
4  Cl.Cn1ccnc1CC1COc2ccccc2O1 (configuration not stated)               pA2          4.33

Let us examine a further case.
Task: Please report pA2 with Adrenergic receptor alpha-1 (Rattus norvegicus, UniProt P15823+P23944+P43140) for item CCN1CCN=C1CC1COc2ccccc2O1.Cl (configuration not stated) .
Output: 5

Data origin, for the record: ChEMBL document CHEMBL1122073
